Reference source: PubChem BioAssay (NCI)

# experimental_details: NCI Yeast Anticancer Drug Screen. Data for the sgs1 mgt1 strain (AID 161);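 further: 0% = growth of cultures given vehicle only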
# particulars: S. cerevisiae sgs1 mgt1 strain, at 50.0 µM, active compounds read high
Compounds without any hit were thinned out: in the full panel of roughly 79,000, 15% have a hit.
measure: growth inhibition (%)

compound	measure	unit_name	measured
Clc1ccccc1CSc1cnnc(Cl)c1SCc1ccccc1Cl	growth inhibition	%	31.6
CN(C)CCN(C)C(=N)N	growth inhibition	%	-6.45
O=C(O)c1cocc1C(=O)O	growth inhibition	%	-13.6
CC(=O)CCC1(C)CCCC(C)(C)CC1=O (stereo not drawn)	growth inhibition	%	3.75
CC(=O)OCC1OC(n2ccc(=O)[nH]c2=O)C(NC(=O)C(F)(F)F)C(OC(C)=O)C1OC(C)=O (stereo not drawn)	growth inhibition	%	-11.2
Cc1ccc2c(CC(=O)O)cc(=O)oc2c1	growth inhibition	%	-7.95
CCOC(=O)CC1(C)OCCO1	growth inhibition	%	8.95
O=C([O-])c1ccc(C(=O)[O-])cc1.O=C([O-])c1ccc(C(=O)[O-])cc1.[Mo+2].[Mo+2]	growth inhibition	%	2.85
CCCCOC(=O)/C=C/c1ccc(OC(C)C)cc1	growth inhibition	%	-9.4
CC(C)CC1NC(=O)CCC(NC(=O)C(Cc2ccc(O)cc2)NC(=O)OCc2ccccc2)C(=O)NC(Cc2ccccc2)C(=O)NC(Cc2ccccc2)NC1=O (stereo not drawn)	growth inhibition	%	-24
N#CC(C(=O)C(N)=O)c1ccccc1Cl (stereo not drawn)	growth inhibition	%	-6.8
c1ccc(-c2nc3ccccc3nc2SCc2cccnc2)cc1	growth inhibition	%	-19.7
CN(Cc1ccccc1)C(=O)c1cccc(C(=O)N(C)Cc2ccccc2)c1	growth inhibition	%	19.1
CCN=C(c1ccccc1)N(O)c1ccccc1	growth inhibition	%	-3.15
CCn1cc(C(=O)O)c(=O)c2ccc(-c3cn[nH]c3C)nc21	growth inhibition	%	34.6
Cn1nc(-c2ccccc2)c(C(=O)/C=C/c2ccc(F)cc2)c(N2CCOCC2)c1=O	growth inhibition	%	-54.8
C=C1C(=O)O[C@H]2[C@@H](O)[C@H](C)CCC[C@]3(C)O[C@H]3CC[C@@]3(C)O[C@@H]3C[C@@H]12	growth inhibition	%	70.5
O=[N+]([O-])c1ccc(NN=C2CN3CCN(C2)c2ccccc23)c([N+](=O)[O-])c1	growth inhibition	%	59.8
CC(=O)O/C(C)=C/C(C)C	growth inhibition	%	9
c1ccc(-c2nnsc2-c2ccccc2)cc1	growth inhibition	%	27.6
CC(C)c1ccc(NC(=S)NCCO)cc1	growth inhibition	%	-21.7
CC(C)c1ccccc1NC(=O)C(=O)Cc1nc2ccccc2s1	growth inhibition	%	19.7
CN(C)c1cc[n+](-c2c([O-])c3ccccc3n(-c3ccccc3)c2=O)cc1	growth inhibition	%	14.2
CC(=O)Oc1cccc2c(/C=N/NC(N)=S)ncc(C)c12	growth inhibition	%	86.7
C=CCc1c(Cl)nc(Cl)nc1Cl	growth inhibition	%	10.3
CC(=O)OC1Cc2ccccc2C(OC(C)=O)Cc2ccccc21 (stereo not drawn)	growth inhibition	%	-1.25
CCOC(=O)CC1NC(=O)CNC1=O (stereo not drawn)	growth inhibition	%	5.3
COc1cc2nc3n(c(=O)c2cc1OC)CCCCC3	growth inhibition	%	3.75
Nc1nc(-c2ccc([N+](=O)[O-])cc2)cc(-c2cc(-c3ccc([N+](=O)[O-])cc3)nc(N)n2)n1	growth inhibition	%	-9.8
CCC(=O)Oc1ccc[nH]c1=O	growth inhibition	%	4.95
CCCC(=O)OCc1ccc(Cl)cc1Cl	growth inhibition	%	14.8
O=[N+]([O-])c1cccc(-c2cc(-c3cccs3)cc(-c3ccccc3)n2)c1	growth inhibition	%	-1.95
CC1=C(/C=C/C(O)CC(O)(C(F)(F)F)C(F)(F)F)C(C)(C)CCC1 (stereo not drawn)	growth inhibition	%	18.9
CN(C(=O)C(Cl)Cl)c1ccc(-c2csc(Cc3ccccc3)n2)cc1	growth inhibition	%	1.05
O=[N+]([O-])c1ccc2[nH]nc(OCc3ccccn3)c2c1	growth inhibition	%	-23.8
Cc1ccc(N=Nc2c(N)nc(N)[nH]c2=O)c(C)c1	growth inhibition	%	-11.9
COC(=O)C12OCC34C(CC5C(C)=C(O)C(=O)CC5(C)C3C(O)C1O)OC(=O)C(OC(C)=O)C24 (stereo not drawn)	growth inhibition	%	80.5
O=C1CC(=O)N2C=CC=CC2N1 (stereo not drawn)	growth inhibition	%	-23.1
N#Cc1cc2c(cc1C#N)SCCSCCCSCCS2	growth inhibition	%	1.05
O=C(OCc1ccccc1)N(Cc1ccccc1)S(=O)(=O)c1ccccc1	growth inhibition	%	14.9
N#CCCn1ncc(C#N)c1N	growth inhibition	%	-1.5
CCS(=O)(=O)N(CC(=O)O)Cc1ccccc1	growth inhibition	%	-13.4
C#CCN(Cc1ccc2nc(-c3ccccc3)c(Cl)nc2c1)c1ccc(Cl)c(Cl)c1	growth inhibition	%	-2.25
O=c1[nH]c(=S)c2cncnc2n1C1OC(CO)C(O)C1O (stereo not drawn)	growth inhibition	%	-6.6
ONC1=Nc2ccccc2C(=S)N2CSCC12 (stereo not drawn)	growth inhibition	%	-26.4
CC(CCC(=O)O)C1CCC2C3CCC4CC(OC=O)CCC4(C)C3CC(=O)C12C (stereo not drawn)	growth inhibition	%	-12.8
CCN(CC)CCNc1ccc(OC)c2sc3ccccc3c(=O)c12	growth inhibition	%	20.9
O=C1CCC(C(Sc2ccccc2)(Sc2ccccc2)Sc2ccccc2)C1 (stereo not drawn)	growth inhibition	%	-22
